System: GM-CSF production by Human Airway Smooth Muscle Cells
TEST: Interleukin-1α-mediated GM-CSF production by HASM cells (ELISA)
Type: cell-based
CONDITION DESCRIPTION: inhibition of interleukin-1α (1 ng/ml)-mediated GM-CSF production; concentration not given; * not defined
Provide the reported HASM - GM-CSF of each item.

// each compound listed below needs its HASM - GM-CSF
1. COc1cc2c(cc1O)/C(=N/OCc1ccncc1)C[C@@H]1[C@@H]2CC[C@]2(C)/C(=N/O)CC[C@@H]12
2. COc1cc2c(cc1O)/C(=N/OCc1ccc(C)cc1)C[C@@H]1[C@@H]2CC[C@]2(C)[C@@H](O)CC[C@@H]12
3. COc1ccc(CO/N=C2\C[C@@H]3[C@H](CC[C@]4(C)/C(=N/O)CC[C@@H]34)c3cc(OC)c(O)cc32)cc1
4. COc1cc2c(cc1O)CC[C@@H]1[C@@H]2CC[C@]2(C)[C@@H](O)CC[C@@H]12 [2-methoxyestradiol, reference compound]

[A]
34 ± 11*
35 ± 9*
28 ± 10*
29 ± 10*

Batch of 2 compounds: report HASM - GM-CSF for each.
1. COc1cc2c(cc1O)C(=NOCc1ccc([N+](=O)[O-])cc1)C[C@@H]1[C@@H]2CC[C@]2(C)[C@@H](O)CC[C@@H]12
2. COc1cc2c(cc1O)C(=NOCc1ccc([N+](=O)[O-])cc1)C[C@@H]1[C@@H]2CC[C@]2(C)C(=NO)CC[C@@H]12

[A]
1: 45 ± 8*; 2: 43 ± 11*

Source of measurements: patent US20070275935A1
